# credit: patent US5891882A

biological target: α-1B adrenoreceptor (rat spleen) (Rattus norvegicus); construct: from tissue; host or cells: rat spleen; experiment: Functional antagonism: inhibition of phenylephrine-induced contraction of rat spleen; type: cell-based; conditions: rat spleen, phenylephrine-induced contraction, Schild plot
Sequence (P15823 whole entry): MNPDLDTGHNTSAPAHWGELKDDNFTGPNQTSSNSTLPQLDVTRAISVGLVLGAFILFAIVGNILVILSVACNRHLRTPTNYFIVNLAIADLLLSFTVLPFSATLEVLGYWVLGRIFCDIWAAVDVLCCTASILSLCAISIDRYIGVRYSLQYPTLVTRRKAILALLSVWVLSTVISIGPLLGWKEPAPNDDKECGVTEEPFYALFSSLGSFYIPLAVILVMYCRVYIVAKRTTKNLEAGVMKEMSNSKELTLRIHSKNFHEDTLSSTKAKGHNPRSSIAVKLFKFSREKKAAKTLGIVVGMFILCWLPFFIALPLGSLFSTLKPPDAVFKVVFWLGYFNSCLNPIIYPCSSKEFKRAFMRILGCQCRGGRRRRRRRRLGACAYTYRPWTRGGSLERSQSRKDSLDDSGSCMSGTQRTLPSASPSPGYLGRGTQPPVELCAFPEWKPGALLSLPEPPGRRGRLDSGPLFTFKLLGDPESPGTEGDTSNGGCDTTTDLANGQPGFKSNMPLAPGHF
Structures can show the parent of a compound that is named as a salt.
PARAMETER: In Vitro Characterization (pA2) Rat Spleen
Numbers only.

Please review the following examples before continuing.
MOLECULE	MEASUREMENT
COc1cc2[nH]c(=O)n(CCCCN3C[C@@H]4COc5ccccc5[C@@H]4C3)c(=O)c2cc1OC.Cl (racemic)	7.41
COc1cccc2c1[C@@H]1CN(CCCCn3c(=O)[nH]c4c(sc5ncccc54)c3=O)C[C@@H]1CO2 [Example 34, hydrochloride]	8.12
COc1cccc2c1[C@@H]1CN(CCCCn3c(=O)[nH]c4c(sc5c(Cl)nccc54)c3=O)C[C@H]1CO2	7.31
COc1cccc2c1[C@@H]1CN(CCCCn3c(=O)[nH]c4c(sc5ncccc54)c3=O)C[C@H]1CO2 [Example 44, hydrochloride]	8.35
COc1cccc2c1OC[C@H]1CN(CCn3c(=O)[nH]c4c(sc5ccccc54)c3=O)C[C@@H]21.Cl (racemic)	6.83

Quick one: give me In Vitro Characterization (pA2) Rat Spleen for each item below, same order please.
1. COc1ccc2c(n1)sc1c(=O)n(CCCCN3C[C@H]4COc5cccc(OC)c5[C@@H]4C3)c(=O)[nH]c12 [Example 46, hydrochloride]
2. COc1ccc2c(n1)sc1c(=O)n(CCCCN3C[C@@H]4COc5cccc(OC)c5[C@@H]4C3)c(=O)[nH]c12 [Example 33, hydrochloride]

[8.12, 7.83]

Fill in reported In Vitro Characterization (pA2) Rat Spleen for this entry: COc1cccc2c1[C@@H]1CN(CCCCn3c(=O)[nH]c4c(sc5ncc(-c6ccccc6)nc54)c3=O)C[C@@H]1CO2 [Example 39, hydrochloride]
6.83

---

Biological target: α-1A adrenoreceptor (rat vas deferens) (Rattus norvegicus, UniProt P43140)
Construct: from tissue; host or cells: rat vas deferens
Sequence (P43140 1-466): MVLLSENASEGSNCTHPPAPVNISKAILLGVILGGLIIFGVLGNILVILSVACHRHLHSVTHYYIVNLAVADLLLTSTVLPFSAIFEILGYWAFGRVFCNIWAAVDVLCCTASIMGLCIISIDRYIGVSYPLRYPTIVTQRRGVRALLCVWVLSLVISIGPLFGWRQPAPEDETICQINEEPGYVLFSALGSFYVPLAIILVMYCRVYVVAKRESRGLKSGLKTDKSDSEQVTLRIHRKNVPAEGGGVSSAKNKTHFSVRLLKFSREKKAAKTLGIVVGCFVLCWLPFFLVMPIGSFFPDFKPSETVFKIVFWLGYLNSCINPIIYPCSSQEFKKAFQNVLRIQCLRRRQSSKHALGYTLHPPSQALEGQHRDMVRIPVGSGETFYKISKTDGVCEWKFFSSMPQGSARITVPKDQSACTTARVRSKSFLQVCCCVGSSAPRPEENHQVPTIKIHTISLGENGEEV
Assay: Functional antagonism: inhibition of phenylephrine-induced contraction of rat vas deferens
Assay type: cell-based
Details: rat vas deferens, phenylephrine-induced contraction, Schild plot
Where a name gives a salt, the structure may show the parent alone.
PARAMETER: In Vitro Characterization (pA2) Rat Vas
Numbers only.

Please review the following examples before continuing.
COMPOUND	TARGET SYSTEM	In Vitro Characterization (pA2) Rat Vas
COc1cccc2c1[C@@H]1CN(CCCCn3c(=O)[nH]c4c(sc5ccncc54)c3=O)C[C@@H]1CO2 [Example 28, hydrochloride]	α-1A adrenoreceptor (rat vas deferens) (Rattus norvegicus, UniProt P43140)	9.39
COc1cccc2c1[C@@H]1CN(CCCCn3c(=O)[nH]c4c(sc5nc(C)ccc54)c3=O)C[C@H]1CO2 [Example 45, hydrochloride]	α-1A adrenoreceptor (rat vas deferens) (Rattus norvegicus, UniProt P43140)	9.59

Quick one: give me In Vitro Characterization (pA2) Rat Vas for each item below, same order please.
1. COc1cccc2c1[C@@H]1CN(CCCCn3c(=O)[nH]c4c(sc5ccncc54)c3=O)C[C@H]1CO2 [Example 41, hydrochloride]
2. COc1cccc2c1[C@@H]1CN(CCCCn3c(=O)[nH]c4c(sc5c(Cl)nccc54)c3=O)C[C@@H]1CO2
3. COc1cccc2c1[C@@H]1CN(CCCCn3c(=O)[nH]c4c(sc5cnccc54)c3=O)C[C@H]1CO2 [Example 42, hydrochloride]
4. COc1ccc2c(n1)sc1c(=O)n(CCCCN3C[C@@H]4COc5cccc(OC)c5[C@@H]4C3)c(=O)[nH]c12 [Example 33, hydrochloride]
5. COc1ccc2sc3c(=O)n(CCCCN4C[C@@H]5COc6cccc(OC)c6[C@@H]5C4)c(=O)[nH]c3c2n1 [Example 30, hydrochloride]

9.45
9.31
9.59
9.02
9.6
